Measured values drawn from paper PMC8597786 for this set.

# SYSTEM_TESTED: SARS-CoV-2 spike RBD/ACE2 (Severe acute respiratory syndrome coronavirus 2, UniProt P0DTC2)
# Construct: a SARS-CoV-2 RBD protein derived from USA-WA1/2020 and containing a C-terminal His tag; a full-length ACE2 peptide with a C-terminal Fc tag; purchased Sino Biological
# TEST_SUMMARY: biochemical
# Format: binding, SARS-CoV-2 (USA-WA1/2020)
So I've got a bunch of compounds here, and I need their pIC50 values.
Answers are plain numbers, as −log10 of the molar value.

Here's what some known entries look like.
COMPOUND: OC[C@H]1O[C@@H](Oc2cc3c4c(c2)[C@@H]([C@@H]2c5cc(O)cc6c5[C@@H](c5cc(O)cc(O)c5[C@H]2c2ccc(O)cc2)[C@H](c2ccc(O)cc2)O6)[C@H](c2ccc(O)cc2)c2c(O)cc(O)cc2[C@H]4[C@H](c2ccc(O)cc2)O3)[C@H](O)[C@@H](O)[C@@H]1O [Vatalbinoside A, vatalbinoside A]
pIC50: 6.62

COMPOUND: Oc1ccc([C@@H]2c3c(O)cc(O)cc3[C@@H]3c4c(cc(O)cc4[C@H]2[C@@H]2c4cc(O)cc5c4[C@@H](c4cc(O)cc(O)c4[C@H]2c2ccc(O)cc2)[C@H](c2ccc(O)cc2)O5)O[C@H]3c2ccc(O)cc2)cc1 [Hopeaphenol, (–)-hopeaphenol]
pIC50: 6.96

Next compound, pIC50 to be filled in.
For record Oc1ccc([C@@H]2c3c(O)cc(O)cc3[C@@H]3c4c(cc(O)c5c4[C@@H]2[C@H](c2ccc(O)cc2)[C@H]5c2cc(O)cc4c2[C@@H](c2cc(O)cc(O)c2)[C@H](c2ccc(O)cc2)O4)O[C@H]3c2ccc(O)cc2)cc1 [Vaticanol B, vaticanol B] the listed pIC50 is 7.17

* * *

Hi there, I'd appreciate the recorded % GFP+ nuclei, Average for every entry that follows.
# System: VSVΔG-S-GFP pseudovirus containing SARS-CoV-2 spike (USA-WA1/2020)
# EXPERIMENTAL_SETUP: 50 μM
Answers are plain numbers, in %.

Consider the worked cases shown below.
COMPOUND: Oc1ccc([C@@H]2c3c(O)cc(O)cc3[C@@H]3c4c(cc(O)cc4[C@H]2[C@@H]2c4cc(O)cc5c4[C@@H](c4cc(O)cc(O)c4[C@H]2c2ccc(O)cc2)[C@H](c2ccc(O)cc2)O5)O[C@H]3c2ccc(O)cc2)cc1
% GFP+ nuclei, Average, %: 0.69
--
COMPOUND: Oc1ccc(/C=C/c2cc(O)cc(O)c2)cc1 [Resveratrol, resveratrol, reference compound]
% GFP+ nuclei, Average, %: 2.36
--
COMPOUND: Oc1ccc([C@@H]2c3c(O)cc(O)cc3[C@@H]3c4c(cc(O)c5c4[C@@H]2[C@H](c2ccc(O)cc2)[C@H]5c2cc(O)cc4c2[C@@H](c2cc(O)cc(O)c2)[C@H](c2ccc(O)cc2)O4)O[C@H]3c2ccc(O)cc2)cc1
% GFP+ nuclei, Average, %: 2.05

Field: next compound
Per the record, OC[C@H]1O[C@@H](Oc2cc3c4c(c2)[C@@H]([C@@H]2c5cc(O)cc6c5[C@@H](c5cc(O)cc(O)c5[C@H]2c2ccc(O)cc2)[C@H](c2ccc(O)cc2)O6)[C@H](c2ccc(O)cc2)c2c(O)cc(O)cc2[C@H]4[C@H](c2ccc(O)cc2)O3)[C@H](O)[C@@H](O)[C@@H]1O [Vatalbinoside A, vatalbinoside A] has % GFP+ nuclei, Average of 0.99

* * *

# TEST_SUMMARY: Resazurin cell viability assay in uninfected cells
# Format: cell-based
# EXPERIMENTAL_SETUP: African green monkey, uninfected Vero-E6 cells, resazurin, 4 days
# Method: A total of 20,000 Vero-E6 cells were plated in 96-well plates and incubated overnight before addition of compounds at defined concentrations; 0.1% DMSO vehicle control was added to wells in the absence of test compounds. […] Cells were incubated for an additional 4 h before fluorescence intensity was measured using a ClarioStar plate reader (BMG Labtech). Background fluorescence was subtracted from wells containing resazurin and D10+ medium but no cells.
EXPERIMENTAL_ENDPOINT: CC50 at 4 days

Solved cases below.
COMPOUND: Oc1ccc([C@@H]2c3c(O)cc(O)cc3[C@@H]3c4c(cc(O)c5c4[C@@H]2[C@H](c2ccc(O)cc2)[C@H]5c2cc(O)cc4c2[C@@H](c2cc(O)cc(O)c2)[C@H](c2ccc(O)cc2)O4)O[C@H]3c2ccc(O)cc2)cc1
CC50 at 4 days: > 100 µM

COMPOUND: Oc1ccc([C@@H]2c3c(O)cc(O)cc3[C@@H]3c4c(cc(O)cc4[C@H]2[C@@H]2c4cc(O)cc5c4[C@@H](c4cc(O)cc(O)c4[C@H]2c2ccc(O)cc2)[C@H](c2ccc(O)cc2)O5)O[C@H]3c2ccc(O)cc2)cc1
CC50 at 4 days: > 100 µM

COMPOUND: OC[C@H]1O[C@@H](Oc2cc3c4c(c2)[C@@H]([C@@H]2c5cc(O)cc6c5[C@@H](c5cc(O)cc(O)c5[C@H]2c2ccc(O)cc2)[C@H](c2ccc(O)cc2)O6)[C@H](c2ccc(O)cc2)c2c(O)cc(O)cc2[C@H]4[C@H](c2ccc(O)cc2)O3)[C@H](O)[C@@H](O)[C@@H]1O [Vatalbinoside A, vatalbinoside A]
CC50 at 4 days: > 100 µM

Could you report CC50 at 4 days for every entry in the following list?
1. Oc1ccc(/C=C/c2cc(O)cc(O)c2)cc1 [Resveratrol, resveratrol, reference compound]
2. CCC(CC)COC(=O)[C@H](C)N[P@](=O)(OC[C@H]1O[C@@](C#N)(c2ccc3c(N)ncnn23)[C@H](O)[C@@H]1O)Oc1ccccc1 [Remdesivir, remdesivir, reference compound]

Reply:
~100 µM
> 10 µM

* * *

# SYSTEM_TESTED: SARS-CoV-2 spike RBD/ACE2 (Severe acute respiratory syndrome coronavirus 2, UniProt P0DTC2)
# Construct: a SARS-CoV-2 RBD protein derived from USA-WA1/2020 and containing a C-terminal His tag; a full-length ACE2 peptide with a C-terminal Fc tag; purchased Sino Biological
# TEST_SUMMARY: biochemical
# Assay type: binding, SARS-CoV-2 (USA-WA1/2020)
# EXPERIMENTAL_SETUP: read-out: IC50 for Spike/ACE2 AlphaScreen
EXPERIMENTAL_ENDPOINT: IC50

Lookup result for Cc1c(COc2cc(OCc3cccc(C#N)c3)c(CN3C[C@H](O)C[C@@H]3C(=O)O)cc2Cl)cccc1-c1ccc2c(c1)OCCO2 [BMS-1166, reference compound] ; measured IC50: > 100 µM
